Biological target: dbOphMA (Dendrothele bispora, UniProt A0A4S8L4Q5)
Sequence (A0A4S8L4Q5 1-377): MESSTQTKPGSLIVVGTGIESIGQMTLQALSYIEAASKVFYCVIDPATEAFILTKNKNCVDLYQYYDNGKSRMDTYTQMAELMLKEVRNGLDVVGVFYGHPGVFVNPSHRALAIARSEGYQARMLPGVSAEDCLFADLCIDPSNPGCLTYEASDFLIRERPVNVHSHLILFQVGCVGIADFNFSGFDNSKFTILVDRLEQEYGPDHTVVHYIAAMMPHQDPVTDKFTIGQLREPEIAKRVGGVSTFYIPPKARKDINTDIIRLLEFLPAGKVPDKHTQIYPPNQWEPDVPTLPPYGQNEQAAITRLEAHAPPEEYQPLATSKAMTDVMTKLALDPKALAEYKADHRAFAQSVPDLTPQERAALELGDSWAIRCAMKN
Experiment: microscale thermophoresis
Assay type: binding
assay metric: pKd
Answers are plain numbers, as −log10 of the molar value.

Request: // pKd lookup, key: C[S@@+](CC[C@H](N)C(=O)O)C[C@H]1O[C@@H](n2cnc3c(N)ncnc32)[C@H](O)[C@@H]1O
Result: 4.09

* * *

Target: dbOphMA (Dendrothele bispora)
Experiment: microscale thermophoresis
Assay type: binding
assay metric: Kd (µM)
One number for each entry, in µM.

Request: // map Nc1ncnc2c1ncn2[C@@H]1O[C@H](CSCC[C@H](N)C(=O)O)[C@@H](O)[C@H]1O to recorded Kd (system: dbOphMA (Dendrothele bispora))
Result: 6.88
